- Experimental Details: Peracetic acid generation from hydroxyapatite bound CE-7 perhydrolase fusions (Example 8)
- Assay type: biochemical
- Cond: hydroxyapatite particles exposed to 10 μM enzyme, washed; 100 mM triacetin, 100 mM H2O2, 30 min, 37° C.; no enzyme 30-118.8
Endpoint Name: Peracetic acid (ppm)
Report as a plain number; the unit ppm is understood.

Query :: Look up Peracetic acid (ppm) for this molecule: EZ-33: Lla-link1-H6, SEQ ID NO: 457 (protein) MTKINNWQDYQGSSLKPEDFDKFWDEKINLVSNHQFEFELIEKNLSSKVVNFYHLWFTAIDGAKIHAQLIVPKNLKEKYPAILQFHGYHCDSGDWVDKIGIVAEGNVVLALDCRGQGGLSQDNIQTMGMTMKGLIVRGIDEGYENLYYVRQFMDLITATKILSEFDFVDETNISAQGASQGGALAVACAALSPLIKKVTATYPFLSDYRKAYELGAEESAFEELPYWFQFKDPLHLREDWFFNQLEYIDIQNLAPRIKAEVIWILGGKDTVVPPITQMAAYNKIQSKKSLYVLPEYGHEYLPKISDWLRENQGPGSGGAGSPGSAGGPGSHHHHHH
Result :: 359.1
